Tested on: recombinant NL4-3 virus (nef section replaced with Renilla luciferase gene) in MT-2 cells
Assay text: HIV cell culture assay (antiviral activity, luciferase readout)
Format: cell-based
Test conditions: Renilla, NL43, MT-2 cells infected for 4-5 days with recombinant NL4-3 Renilla luciferase virus, serial dilutions of compound
From the text: HIV cell culture assay—MT-2 cells, 293T cells and the proviral DNA clone of NL4-3 virus were obtained from the NIH AIDS Research and Reference Reagent Program. […] Luciferase was quantitated using the EnduRen Live Cell Substrate from Promega (Madison, Wis.). Antiviral activities of compounds toward the recombinant virus were quantified by measuring luciferase activity in MT-2 cells infected for 4-5 days with the recombinant virus in the presence of serial dilutions of the compound. […]
Measured EC50 values are reported for all entries that follow.

Molecule	Tested target	EC50 (pM)
Cc1noc(C)c1-c1ccc2c(=O)n(-c3ccc(Cl)c4c(NS(C)(=O)=O)nn(C)c34)c([C@H](Cc3cc(F)cc(F)c3)NC(=O)Cn3nc(C(F)F)c4c3C(F)(F)[C@@H]3C[C@H]43)nc2c1 (atropisomer, axis not shown; (aR))	recombinant NL4-3 virus (nef section replaced with Renilla luciferase gene) in MT-2 cells	440
Cn1nc(NS(C)(=O)=O)c2c(Cl)ccc(-n3c([C@H](Cc4cc(F)cc(F)c4)NC(=O)Cn4nc(C(F)F)c5c4C(F)(F)[C@@H]4C[C@H]54)nc4cc(-c5ccncc5)ccc4c3=O)c21 (atropisomer, axis not shown; (aR))	recombinant NL4-3 virus (nef section replaced with Renilla luciferase gene) in MT-2 cells	160

* * *

Measured pEC50 values are reported for all entries that follow.
Tested on: recombinant NL4-3 virus (nef section replaced with Renilla luciferase gene) in MT-2 cells
Assay text: HIV cell culture assay (antiviral activity, luciferase readout)
Format: cell-based
Test conditions: Renilla, NL43, MT-2 cells infected for 4-5 days with recombinant NL4-3 Renilla luciferase virus, serial dilutions of compound
pEC50: −log10 of the molar value.

Compound	pEC50
Cn1nc(NS(C)(=O)=O)c2c(Cl)ccc(-n3c([C@H](Cc4cc(F)cc(F)c4)NC(=O)Cn4nc(C(F)F)c5c4C(F)(F)[C@@H]4C[C@H]54)nc4cc(-c5ccccc5F)ccc4c3=O)c21 (single isomer, unassigned) [Example 2]	9.28
COc1cccc(OC)c1-c1ccc2c(=O)n(-c3ccc(Cl)c4c(NS(C)(=O)=O)nn(C)c34)c([C@H](Cc3cc(F)cc(F)c3)NC(=O)Cn3nc(C(F)F)c4c3C(F)(F)[C@@H]3C[C@H]43)nc2c1 (atropisomer, axis not shown; (aR)) [Example 86]	9.30
Cc1ccnc(-c2ccc3c(=O)n(-c4ccc(Cl)c5c(NS(C)(=O)=O)nn(CC(F)(F)F)c45)c([C@H](Cc4cc(F)cc(F)c4)NC(=O)Cn4nc(C(F)F)c5c4C(F)(F)[C@@H]4C[C@H]54)nc3c2)n1 [Example 162]	10.23
O=C(Cn1nc(C(F)F)c2c1C(F)(F)[C@@H]1C[C@H]21)N[C@@H](Cc1cc(F)cc(F)c1)c1nc2cc(-c3ncccn3)ccc2c(=O)n1-c1ccc(Cl)c2c(NS(=O)(=O)C3CC3)nn(CC(F)F)c12 (atropisomer, axis not shown; (aR)) [Example 127]	10.23
O=C(Cn1ccc(C2CC2)n1)N[C@@H](Cc1cc(F)cc(F)c1)c1nc2cc(-c3ccccc3)ccc2c(=O)n1-c1ccc(S(=O)(=O)N2CCOCC2)cc1 [Example 144]	7.80
Cn1nc(NS(C)(=O)=O)c2c(Cl)ccc(-n3c([C@H](Cc4cc(F)cc(F)c4)NC(=O)Cn4nc(C(F)F)c5c4C(F)(F)[C@@H]4C[C@H]54)nc4cc(-c5cccc(S(C)(=O)=O)c5)ccc4c3=O)c21 (atropisomer, axis not shown; (aR)) [Example 54]	9.68
Cc1cc(Cl)ccc1-c1ccc2c(=O)n(-c3ccc(S(=O)(=O)N4CCOCC4)cc3)c([C@H](Cc3cc(F)cc(F)c3)NC(=O)Cn3nc(C(F)F)c4c3C(F)(F)[C@@H]3C[C@H]43)nc2c1 [Example 15]	7.37
Cn1nc(NS(C)(=O)=O)c2c(Cl)ccc(-n3c([C@H](Cc4cc(F)cc(F)c4)NC(=O)Cn4nc(C(F)F)c5c4C(F)(F)[C@@H]4C[C@H]54)nc4cc(-c5cc(F)ccc5CO)ccc4c3=O)c21 [Example 180]	9.70

* * *

Measured EC50 values are reported for all entries that follow.
Test system: recombinant NL4-3 virus (nef section replaced with Renilla luciferase gene) in MT-2 cells
Assay text: HIV cell culture assay (antiviral activity, luciferase readout)
Type: cell-based
Test conditions: Renilla, NL43, MT-2 cells infected for 4-5 days with recombinant NL4-3 Renilla luciferase virus, serial dilutions of compound

Compound	EC50
O=C(Cn1nc(C(F)F)cc1C(F)F)N[C@@H](Cc1cc(F)cc(F)c1)c1nc2cc(-c3ccccn3)ccc2c(=O)n1-c1ccc(Cl)c2c(NS(=O)(=O)C3CC3)nn(CC(F)F)c12	2.1 nM
Cn1nc(NS(C)(=O)=O)c2c(Cl)ccc(-n3c([C@H](Cc4cc(F)cc(F)c4)NC(=O)Cn4nc(C(F)F)c5c4C(F)(F)[C@@H]4C[C@H]54)nc4cc(-c5cccc(F)c5F)ccc4c3=O)c21 (atropisomer, axis not shown; (aR))	0.63 nM

* * *

Tested on: recombinant NL4-3 virus (nef section replaced with Renilla luciferase gene) in MT-2 cells
Assay text: HIV cell culture assay (antiviral activity, luciferase readout)
Type: cell-based
Test conditions: Renilla, NL43, MT-2 cells infected for 4-5 days with recombinant NL4-3 Renilla luciferase virus, serial dilutions of compound
Measured EC50 values are reported for all entries that follow.
Test readout: EC50 (nM)

Compound	Tested target	Reading unit	Data value
Cn1nc(NS(C)(=O)=O)c2c(Cl)ccc(-n3c([C@H](Cc4cc(F)cc(F)c4)NC(=O)Cn4nc(C(F)F)c5c4C(F)(F)[C@@H]4C[C@H]54)nc4cc(-c5ccc(F)c(C(=O)O)c5)ccc4c3=O)c21 (atropisomer, axis not shown; (aR)) [Example 38]	recombinant NL4-3 virus (nef section replaced with Renilla luciferase gene) in MT-2 cells	nM	10
Cn1nc(NS(C)(=O)=O)c2c(Cl)ccc(-n3c([C@H](Cc4cc(F)cc(F)c4)NC(=O)Cn4nc(C(F)F)c5c4C(F)(F)[C@@H]4C[C@H]54)nc4cc(-c5cccc(F)c5)ccc4c3=O)c21 (atropisomer, axis not shown; (aR)) [Example 30]	recombinant NL4-3 virus (nef section replaced with Renilla luciferase gene) in MT-2 cells	nM	0.88
COc1c(F)cc(-c2ccc3c(=O)n(-c4ccc(Cl)c5c(NS(C)(=O)=O)nn(C)c45)c([C@H](Cc4cc(F)cc(F)c4)NC(=O)Cn4nc(C(F)F)c5c4C(F)(F)[C@@H]4C[C@H]54)nc3c2)cc1F (atropisomer, axis not shown; (aR)) [Example 70]	recombinant NL4-3 virus (nef section replaced with Renilla luciferase gene) in MT-2 cells	nM	0.92
CCCS(=O)(=O)c1cccc(-c2ccc3c(=O)n(-c4ccc(Cl)c5c(NS(C)(=O)=O)nn(C)c45)c([C@H](Cc4cc(F)cc(F)c4)NC(=O)Cn4nc(C(F)F)c5c4C(F)(F)[C@@H]4C[C@H]54)nc3c2)c1 (atropisomer, axis not shown; (aR)) [Example 122]	recombinant NL4-3 virus (nef section replaced with Renilla luciferase gene) in MT-2 cells	nM	0.17

* * *

Measured CC50 at 4 day values are reported for all entries that follow.
Assay text: Compound cytotoxicity, XTT-based colorimetric assay
Type: cell-based
Test conditions: human, uninfected MT2 cells, day 4, XTT
Method: Compound cytotoxicity and the corresponding CC50 values were determined using the same protocol as described in the antiviral assay except that uninfected cells were used. Cytotoxicity was assessed on day 4 in uninfected MT2 cells by using a XTT (2,3-bis[2-Methoxy-4-nitro-5-sulfophenyl]-2H-tetrazolium-5-carboxyanilide inner salt)-based colorimetric assay (Sigma-Aldrich, St Louis, Mo.).

Compound	CC50 at 4 day
CCCS(=O)(=O)c1cccc(-c2ccc3c(=O)n(-c4ccc(Cl)c5c(NS(C)(=O)=O)nn(C)c45)c([C@H](Cc4cc(F)cc(F)c4)NC(=O)Cn4nc(C(F)F)c5c4C(F)(F)[C@@H]4C[C@H]54)nc3c2)c1 (atropisomer, axis not shown; (aR)) [Example 122]	> 500 nM
Cn1nc(NS(C)(=O)=O)c2c(Cl)ccc(-n3c([C@H](Cc4cc(F)cc(F)c4)NC(=O)Cn4nc(C(F)F)c5c4C(F)(F)[C@@H]4C[C@H]54)nc4cc(-c5cccc(F)c5)ccc4c3=O)c21 (atropisomer, axis not shown; (aR)) [Example 30]	> 1000 nM
Cn1nc(NS(C)(=O)=O)c2c(Cl)ccc(-n3c([C@H](Cc4cc(F)cc(F)c4)NC(=O)Cn4nc(C(F)F)c5c4C(F)(F)[C@@H]4C[C@H]54)nc4cc(-c5cc(F)ccc5F)ccc4c3=O)c21 (atropisomer, axis not shown; (aR)) [Example 99]	> 1000 nM
Cn1nc(NS(C)(=O)=O)c2c(Cl)ccc(-n3c([C@H](Cc4cc(F)cc(F)c4)NC(=O)Cn4nc(C(F)F)c5c4C(F)(F)[C@@H]4C[C@H]54)nc4cc(-c5ccc(F)c(C#N)c5F)ccc4c3=O)c21 [Example 170]	> 500 nM
Cn1nc(NS(C)(=O)=O)c2c(Cl)ccc(-n3c([C@H](Cc4cc(F)cc(F)c4)NC(=O)Cn4nc(C(F)F)c5c4C(F)(F)[C@@H]4C[C@H]54)nc4cc(-c5c(Cl)cccc5Cl)ccc4c3=O)c21 (atropisomer, axis not shown; (aR)) [Example 104]	> 1000 nM
COc1ccc(-c2ccc3c(=O)n(-c4ccc(S(=O)(=O)N5CCOCC5)cc4)c([C@H](Cc4cc(F)cc(F)c4)NC(=O)Cn4ccc(C5CC5)n4)nc3c2)cn1 [Example 32]	> 1000 nM
Cn1nc(NS(C)(=O)=O)c2c(Cl)ccc(-n3c([C@H](Cc4cc(F)cc(F)c4)NC(=O)Cn4nc(C(F)F)c5c4C(F)(F)[C@@H]4C[C@H]54)nc4cc(-c5ccc(S(=O)(=O)N6CCOCC6)cc5)ccc4c3=O)c21 (atropisomer, axis not shown; (aR)) [Example 91]	> 1000 nM
Cn1nc(NS(C)(=O)=O)c2c(Cl)ccc(-n3c([C@H](Cc4cc(F)cc(F)c4)NC(=O)Cn4nc(C(F)F)c5c4C(F)(F)[C@@H]4C[C@H]54)nc4cc(-c5ccc(Oc6ccccc6)cc5)ccc4c3=O)c21 (atropisomer, axis not shown; (aR)) [Example 14]	> 1000 nM
Cn1nc(NS(C)(=O)=O)c2c(Cl)ccc(-n3c([C@H](Cc4cc(F)cc(F)c4)NC(=O)Cn4nc(C(F)F)c5c4C(F)(F)[C@@H]4C[C@H]54)nc4cc(-c5ccccn5)ccc4c3=O)c21 (atropisomer, axis not shown; (aR)) [Example 87]	> 1000 nM
O=C(Cn1nc(C(F)F)c2c1C(F)(F)[C@@H]1C[C@H]21)N[C@@H](Cc1cc(F)cc(F)c1)c1nc2cc(-c3ncccn3)ccc2c(=O)n1-c1ccc(Cl)c2c(NS(=O)(=O)C3CC3)nn(CC(F)F)c12 (atropisomer, axis not shown; (aR)) [Example 127]	> 500 nM
COc1ccccc1-c1ccc2c(=O)n(-c3ccc(Cl)c4c(NS(C)(=O)=O)nn(C)c34)c([C@H](Cc3cc(F)cc(F)c3)NC(=O)Cn3nc(C(F)F)c4c3C(F)(F)[C@@H]3C[C@H]43)nc2c1 [Example 186]	> 1000 nM
Cc1c(-c2ccc3c(=O)n(-c4ccc(Cl)c5c(NS(C)(=O)=O)nn(C)c45)c([C@H](Cc4cc(F)cc(F)c4)NC(=O)Cn4nc(C(F)F)c5c4C(F)(F)[C@@H]4CC54)nc3c2)cc(F)c2c1CCCO2 (stereo in doubt) [Example 53]	> 1000 nM
Cc1nccnc1-c1ccc2c(=O)n(-c3ccc(Cl)c4c(NS(=O)(=O)C5CC5)nn(CC(F)F)c34)c([C@H](Cc3cc(F)cc(F)c3)NC(=O)Cn3nc(C(F)F)c4c3C(F)(F)[C@@H]3C[C@H]43)nc2c1 (atropisomer, axis not shown; (aR)) [Example 126]	> 500 nM
Cc1cccc(C)c1-c1ccc2c(=O)n(-c3ccc(S(=O)(=O)N4CCOCC4)cc3)c([C@H](Cc3cc(F)cc(F)c3)NC(=O)Cn3nc(C(F)F)c4c3C(F)(F)[C@@H]3C[C@H]43)nc2c1 [Example 77]	> 1000 nM
CNC(=O)c1ccc(-c2ccc3c(=O)n(-c4ccc(Cl)c5c(NS(C)(=O)=O)nn(C)c45)c([C@H](Cc4cc(F)cc(F)c4)NC(=O)Cn4nc(C(F)F)c5c4C(F)(F)[C@@H]4C[C@H]54)nc3c2)cc1 (atropisomer, axis not shown; (aR)) [Example 62]	> 1000 nM
